Source of measurements: patent US20230265151A1

- Assayed Target: human GLP-1 receptor (human, UniProt P43220 24-463)
- Protocol Summary: cell-based or functional assay
Metric: cAMP EC50 (1.0% HSA)
Kindly report the value followed by its unit.

Look over these answered cases.
>>> measured_result("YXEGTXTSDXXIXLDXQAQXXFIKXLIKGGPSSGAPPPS (Y-Aib-EGT-αMeF(2F)-TSD-4Pal-Aib-I-αMeL-LD-Orn-QAQ-Aib-Orn-FIK((2-[2-(2-Amino-ethoxy)-ethoxy]-acetyl)-Trx-(γ-Glu)-CO-(CH2)12-CO2H)-αMeY-LIK(((2-[2-(2-Amino-ethoxy)-ethoxy]-acetyl)-Trx-(γ-Glu)-CO-(CH2)12-CO2H)GGPSSGAPPPS-NH2)) [Example 472]")
"7.41 nM"
>>> measured_result("YXEGTXTSDKXIXLDXKAQXXFIXXLIEGGPSSGAPPPS (Y-Aib-EGT-αMeF(2F)-TSDK((2-[2-(2-Amino-ethoxy)-ethoxy]-acetyl)3-(γ-Glu)-CO-(CH2)10-CH3)-Aib-I-αMeL-LD-Orn-K((2-[2-(2-Amino-ethoxy)-ethoxy]-acetyl)3-(γ-Glu)-CO-(CH2)10-CH3)AQ-Aib-Orn-FI-(D-Glu)-αMeY-LIEGGPSSGAPPPS-NH2) [Example 432]")
"1.28 nM"
>>> measured_result("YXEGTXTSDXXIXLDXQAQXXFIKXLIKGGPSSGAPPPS (Y-Aib-EGT-αMeF(2F)-TSD-4Pal-Aib-I-αMeL-LD-Orn-QAQ-Aib-Orn-FIK((2-[2-(2-Amino-ethoxy)-ethoxy]-acetyl)3-(γ-Glu)--(10-(4-carboxyphenoxy)decanoyl))-αMeY-LIK((2-[2-(2-Amino-ethoxy)-ethoxy]-acetyl)3-(γ-Glu)--(10-(4-carboxyphenoxy)decanoyl))GGPSSGAPPPS-NH2) [Example 477]")
"1.56 nM"
>>> measured_result("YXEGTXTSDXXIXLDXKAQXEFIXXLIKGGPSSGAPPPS (Y-Aib-EGT-αMeF(2F)-TSD-4Pal-Aib-I-αMeL-LD-Orn-K((2-[2-(2-Amino-ethoxy)-ethoxy]-acetyl)2-CO-(CH2)12-CO2H)AQ-Aib-EFI-(D-Glu)-αMeY-LIK((2-[2-(2-Amino-ethoxy)-ethoxy]-acetyl)2-CO-(CH2)12-CO2H)GGPSSGAPPPS-NH2) [Example 387]")
"4.4 nM"
>>> measured_result("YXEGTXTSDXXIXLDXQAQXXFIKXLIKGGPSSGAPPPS (not fully specified; Y-Aib-EGT-αMeF(2F)-TSD-4Pal-Aib-I-αMeL-LD-Orn-QAQ-Aib-Orn-FIK(Aoc-(2-[2-(2-Amino-ethoxy)-ethoxy]-acetyl)-(γ-Glu)-CO-(CH2)12-CO2)-αMeY-LIK(Aoc-(2-[2-(2-Amino-ethoxy)-ethoxy]-acetyl)-(γ-Glu)-CO-(CH2)12-CO2)GGPSSGAPPPS-NH2) [Example 452]")
"16.8 nM"

Next up:
q: Would you kindly share the measured cAMP EC50 (1.0% HSA) for YXEGTXTSDXXIXLDXIAQXXFIKXLIKGGPSSGAPPPS (Y-Aib-EGT-αMeF(2F)-TSD-4Pal-Aib-I-αMeL-LD-Orn-IAQ-Aib-Orn-FIK((2-[2-(2-Amino-ethoxy)-ethoxy]-acetyl)2-(γ-Glu)-(10-(4-carboxyphenoxy)decanoyl))-αMeY-LIK((2-[2-(2-Amino-ethoxy)-ethoxy]-acetyl)2-(γ-Glu)-(10-(4-carboxyphenoxy)decanoyl))GGPSSGAPPPS-NH2) [Example 354] ?
a: 7.25 nM
